Tested on: biotinyl-Met-oxazolone
Assay: self-aminoacylation, catalytic enhancement (BMO) (fold over background); higher = more active; k-Seq, kA / k0A0; sequences stand for … in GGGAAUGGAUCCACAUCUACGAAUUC…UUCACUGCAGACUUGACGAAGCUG
This sample holds only a part of the variants without activity.
self-aminoacylation by entry:
Please give only the number in your answer, with no unit.

AUUACCCUGGUCAUCGUGGGA [Fam2.1 aminoacylation ribozyme variant]	1.33
CCACACUUCAAGCAAACGGUC [Fam1B.1 aminoacylation ribozyme variant]	0.511
CUACUUCAAACUAGCGGUCUG [Fam1A.1 aminoacylation ribozyme variant]	0.547
CCACACUUCAAGGAAUCGGUU [Fam1B.1 aminoacylation ribozyme variant]	1.39

// query Look up self-aminoacylation of AUUACCCUGGUUACCGAGUGA [Fam2.1 aminoacylation ribozyme variant] and report it.
// result 11.9

// query State its self-aminoacylation: AAGUAUGCUAAUAGUCGCAAA [Fam3.1 aminoacylation ribozyme variant]
// result 1.67

// query Tell me measured self-aminoacylation for ACGUUUGCGAAUAGUCGCAAG [Fam3.1 aminoacylation ribozyme variant] please.
// result 1.58

// query Identify the reported self-aminoacylation for the following entry. CCACACUUCAAGCAAUCGGUC [Fam1B.1 aminoacylation ribozyme variant]
// result 0.964
